Measured pIC50 by item
- Test system: HT-29
- measurement-description: Cancer cell line IC50, HT-29
- Format: cell-based
- details: Homo sapiens, read-out: Cancer Cell Lines, IC50, Colon HT-29
Would you please state pIC50, meaning minus log10 of the concentration in mol/L, as a bare number?

CC1(C)CCC2=C(S1)c1ccccc1C(=O)C2=O : 5.74

Please report the recorded pIC50 for CC1(C)CCSC2=C1C(=O)C(=O)c1ccccc12 . 5.80

Which pIC50 reading was recorded for the compound CC1(C)CCC2=C(O1)c1ccccc1C(=O)C2=O ? 5.68

* * *

# IC50 annotations
- System: MCF-7
- measurement-description: Cancer cell line IC50, MCF-7
- Assay type: cell-based
- details: Homo sapiens, MCF7; read-out: Cancer Cell Lines, IC50, Breast MCF-7
- Method: In this experiment, exponentially growing cells were seeded at 1000 cells/well and allowed to attach for 48 h. […] After 10-20 days, cells were fixed and stained with modified Wright-Giemsa stain.
Include the unit after the number when you answer.

Guide cases for IC50, answers given:
CC1(C)CCC2=C(O1)c1ccccc1C(=O)C2=O [β-lapachone] : 1000 nM
CC(C)=CCC1CC2=C(OC1(C)C)c1ccccc1C(=O)C2=O (stereo not drawn) : 1000 nM

Endpoint output: IC50 of CC1(C)CCC2=C(S1)c1ccccc1C(=O)C2=O . Value? 1000 nM
